Reference source for all entries: patent US12714678B2

experiment: Pharmacokinetics in mice; type: in vivo, mouse; conditions: CD-1, mouse, in vivo, intravenous injection of 5 mg/kg (5 μmol/kg), read-out: t1/2−λz (converted)
Where a SMILES comes first, the peptide text is derived from it. The star is where a group is joined. Myristoyl = CCCCCCCCCCCCCC(=O)*
assay.metric: half-life

State the recorded half-life for this entry: CCCCCCCCCCCCCC(=O)N[C@@H](Cc1ccccc1)C(=O)N[C@@H](CCC(=O)O)C(=O)N[C@@H](CCC(=O)O)C(=O)N[C@@H](CCC(=O)O)C(=O)N[C@@H](CCCNC(=N)N)C(=O)N[C@@H](CC(C)C)C(=O)O [M3mP6, Myr-FEEERL] (Myristoyl-FEEERL-OH; C-terminus assumed)
2.46 h

###

test: Pharmacokinetics in rats (5-day infusion); set-up: species or system rat; conditions: female, Sprague-Dawley, rat, in vivo, iv
Where a SMILES comes first, the peptide text is derived from it. The star is where a group is joined. Myristoyl = CCCCCCCCCCCCCC(=O)*
assay.metric: half-life
Entry format: amount then unit.

State the recorded half-life for this entry: CCCCCCCCCCCCCC(=O)N[C@@H](Cc1ccccc1)C(=O)N[C@@H](CCC(=O)O)C(=O)N[C@@H](CCC(=O)O)C(=O)N[C@@H](CCC(=O)O)C(=O)N[C@@H](CCCNC(=N)N)C(=O)N[C@@H](CC(C)C)C(=O)O [M3mP6, Myr-FEEERL] (Myristoyl-FEEERL-OH; C-terminus assumed)
222 min

###

assay: Pharmacokinetics in rats (5-day infusion); design: species or system rat; conditions: male, Sprague-Dawley, in vivo; rat 5-day infusion study; read-out: t1/2−λz (half-life after cessation of infusion), male (converted)
Where a SMILES comes first, the peptide text is derived from it. The star is where a group is joined. Myristoyl = CCCCCCCCCCCCCC(=O)*
assay.metric: half-life (h)
Answer in h, number only, no unit symbol.

State the recorded half-life for this entry: CCCCCCCCCCCCCC(=O)N[C@@H](Cc1ccccc1)C(=O)N[C@@H](CCC(=O)O)C(=O)N[C@@H](CCC(=O)O)C(=O)N[C@@H](CCC(=O)O)C(=O)N[C@@H](CCCNC(=N)N)C(=O)N[C@@H](CC(C)C)C(=O)O [M3mP6, Myr-FEEERL] (Myristoyl-FEEERL-OH; C-terminus assumed)
3.1
